molecular target: hERG (KCNH2) (Homo sapiens, UniProt Q12809); test: Displacement of [35S]-MK0499 from human ERG expressed in HEK293 cell membranes at 10 uM after 2 hrs by liquid scintillation counting analysis relative to control; settings: membranes of HEK293 cells that express human ERG, probe [35S]-MK0499
Sequence (Q12809 whole entry): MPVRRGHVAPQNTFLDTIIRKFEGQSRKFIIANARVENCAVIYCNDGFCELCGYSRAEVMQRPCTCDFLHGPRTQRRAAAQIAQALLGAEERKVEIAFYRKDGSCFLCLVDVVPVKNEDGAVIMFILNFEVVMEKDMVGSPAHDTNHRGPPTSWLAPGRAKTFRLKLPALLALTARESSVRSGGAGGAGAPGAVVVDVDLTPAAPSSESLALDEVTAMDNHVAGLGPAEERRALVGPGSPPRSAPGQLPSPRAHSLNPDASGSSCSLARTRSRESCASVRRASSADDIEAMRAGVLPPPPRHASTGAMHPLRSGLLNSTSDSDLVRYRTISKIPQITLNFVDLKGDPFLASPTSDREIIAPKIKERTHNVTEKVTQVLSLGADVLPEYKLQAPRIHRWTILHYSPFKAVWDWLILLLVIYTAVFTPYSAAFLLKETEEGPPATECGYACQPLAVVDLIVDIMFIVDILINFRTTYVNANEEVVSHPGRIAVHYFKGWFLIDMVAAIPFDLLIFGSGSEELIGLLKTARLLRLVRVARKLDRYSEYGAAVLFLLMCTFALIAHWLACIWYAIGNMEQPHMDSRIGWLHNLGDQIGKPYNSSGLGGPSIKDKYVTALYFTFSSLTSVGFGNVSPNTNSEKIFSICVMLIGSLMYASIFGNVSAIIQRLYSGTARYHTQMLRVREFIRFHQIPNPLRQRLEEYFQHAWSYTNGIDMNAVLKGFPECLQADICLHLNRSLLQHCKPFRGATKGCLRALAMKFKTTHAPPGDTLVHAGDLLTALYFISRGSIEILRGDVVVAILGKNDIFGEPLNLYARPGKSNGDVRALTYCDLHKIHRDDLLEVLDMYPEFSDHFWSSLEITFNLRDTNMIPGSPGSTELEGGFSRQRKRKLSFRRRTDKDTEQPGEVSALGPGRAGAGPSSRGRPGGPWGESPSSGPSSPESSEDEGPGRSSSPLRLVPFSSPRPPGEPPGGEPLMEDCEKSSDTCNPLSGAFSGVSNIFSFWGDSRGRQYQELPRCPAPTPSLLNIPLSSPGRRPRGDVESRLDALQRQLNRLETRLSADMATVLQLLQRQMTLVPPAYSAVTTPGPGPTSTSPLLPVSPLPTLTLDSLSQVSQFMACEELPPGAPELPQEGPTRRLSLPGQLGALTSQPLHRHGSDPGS
measure: inhibition at 2 h, 10 µM (%)
Answer format: numeric, % implied, no suffix.

// worked examples, inhibition at 2 h, 10 µM included
>>> meas_value("CC(C)N1C(=O)[C@H](NC(=O)[C@@H](Cc2ccccc2OC(F)(F)F)NC(=O)OC(C)(C)C)CCc2cc(C(F)(F)F)ccc21")
7
>>> meas_value("CC(C)N1C(=O)[C@H](NC(=O)[C@@H](Cc2ccccc2OC(F)(F)F)NC(=O)OC(C)(C)C)CCc2c(F)c(F)cc(F)c21")
24
>>> meas_value("CC(C)N1C(=O)[C@H](NC(=O)[C@@H](Cc2ccccc2OC(F)(F)F)NC(=O)OC(C)(C)C)CCc2cc(F)ccc21")
24
>>> meas_value("CC(C)N1C(=O)[C@H](NC(=O)[C@@H](Cc2ccccc2F)NC(=O)C2CC2C(F)(F)F)CCc2c(F)c(F)cc(F)c21 (stereo partly specified)")
2
>>> meas_value("O=C(N[C@H](Cc1ccccc1F)C(=O)N[C@@H]1CCc2c(F)c(F)cc(F)c2N(C2CC2)C1=O)c1ccc(F)cc1C(F)(F)F")
31

Consider the additional molecule presented here.
Record request: inhibition at 2 h, 10 µM value, item `CC(C)N1C(=O)[C@H](NC(=O)[C@@H](Cc2ccccc2F)NC(=O)c2ccc(F)cc2C(F)(F)F)CCc2cc(Cl)cc(F)c21`
17

* * *

molecular target: Sodium channel protein type 9 subunit alpha (Homo sapiens); assay: Inhibition of human NaV1.7 channel expressed in HEK293 cells by FRET assay
Sequence (Q15858 whole entry): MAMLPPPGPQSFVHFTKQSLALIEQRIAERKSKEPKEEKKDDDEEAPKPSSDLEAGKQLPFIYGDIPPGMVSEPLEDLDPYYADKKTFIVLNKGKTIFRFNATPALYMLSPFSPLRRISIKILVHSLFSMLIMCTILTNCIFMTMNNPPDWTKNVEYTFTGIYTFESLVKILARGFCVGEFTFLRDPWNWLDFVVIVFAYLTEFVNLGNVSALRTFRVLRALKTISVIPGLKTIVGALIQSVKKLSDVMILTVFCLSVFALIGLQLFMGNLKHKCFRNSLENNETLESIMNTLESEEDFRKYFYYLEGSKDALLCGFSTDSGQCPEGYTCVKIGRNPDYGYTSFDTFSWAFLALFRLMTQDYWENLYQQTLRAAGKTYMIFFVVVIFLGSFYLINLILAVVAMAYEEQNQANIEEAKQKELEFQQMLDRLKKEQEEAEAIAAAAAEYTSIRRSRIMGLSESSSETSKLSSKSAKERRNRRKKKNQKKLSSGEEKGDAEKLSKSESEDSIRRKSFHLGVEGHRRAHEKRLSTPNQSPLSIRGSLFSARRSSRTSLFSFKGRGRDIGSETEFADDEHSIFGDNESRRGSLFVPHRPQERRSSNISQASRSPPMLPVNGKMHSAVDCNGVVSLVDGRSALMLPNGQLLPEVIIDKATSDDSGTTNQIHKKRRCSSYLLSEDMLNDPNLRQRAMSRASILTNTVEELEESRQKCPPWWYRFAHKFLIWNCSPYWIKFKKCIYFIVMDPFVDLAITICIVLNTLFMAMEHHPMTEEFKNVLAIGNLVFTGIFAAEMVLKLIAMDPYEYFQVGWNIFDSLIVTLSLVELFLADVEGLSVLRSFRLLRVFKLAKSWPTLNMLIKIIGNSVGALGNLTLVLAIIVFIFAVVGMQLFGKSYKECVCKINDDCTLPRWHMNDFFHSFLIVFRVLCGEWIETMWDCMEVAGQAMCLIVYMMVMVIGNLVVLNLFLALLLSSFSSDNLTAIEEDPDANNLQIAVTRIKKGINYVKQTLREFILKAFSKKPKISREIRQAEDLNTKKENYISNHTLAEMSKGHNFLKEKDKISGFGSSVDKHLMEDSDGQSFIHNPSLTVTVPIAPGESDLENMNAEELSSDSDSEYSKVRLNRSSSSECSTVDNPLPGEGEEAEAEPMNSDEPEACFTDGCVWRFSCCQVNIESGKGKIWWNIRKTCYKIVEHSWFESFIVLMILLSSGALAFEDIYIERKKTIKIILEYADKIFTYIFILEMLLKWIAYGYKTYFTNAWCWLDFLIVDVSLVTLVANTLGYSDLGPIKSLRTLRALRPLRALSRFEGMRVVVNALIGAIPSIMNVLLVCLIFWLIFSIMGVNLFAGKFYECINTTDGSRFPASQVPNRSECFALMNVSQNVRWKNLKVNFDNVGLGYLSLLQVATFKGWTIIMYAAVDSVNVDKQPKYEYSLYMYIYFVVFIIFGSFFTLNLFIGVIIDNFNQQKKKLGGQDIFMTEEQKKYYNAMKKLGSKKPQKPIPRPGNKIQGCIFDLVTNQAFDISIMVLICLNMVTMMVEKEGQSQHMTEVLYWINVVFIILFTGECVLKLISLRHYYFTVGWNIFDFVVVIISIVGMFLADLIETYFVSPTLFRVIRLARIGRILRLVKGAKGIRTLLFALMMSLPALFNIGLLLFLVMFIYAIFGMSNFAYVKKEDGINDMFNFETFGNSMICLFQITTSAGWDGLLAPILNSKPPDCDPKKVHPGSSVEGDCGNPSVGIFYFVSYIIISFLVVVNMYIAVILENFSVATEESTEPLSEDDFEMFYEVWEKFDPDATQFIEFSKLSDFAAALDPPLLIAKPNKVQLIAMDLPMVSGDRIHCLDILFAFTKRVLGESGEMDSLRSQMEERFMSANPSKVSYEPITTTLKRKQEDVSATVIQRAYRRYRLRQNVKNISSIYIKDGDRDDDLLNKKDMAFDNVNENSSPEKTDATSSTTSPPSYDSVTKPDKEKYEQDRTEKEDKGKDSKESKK
Doc: threshold 200 nM (exclusive). Items with IC50 beneath it return yes (1); others return no (0).

Field: below-cutoff. Rule: recorded IC50 strictly less than 200 nM. Subject: `CC(C)N1C(=O)[C@H](NC(=O)[C@@H](Cc2ccccc2F)NC(=O)c2ccc(F)cc2C(F)(F)F)CCc2cc(Cl)cc(F)c21`
no (0)

Consider next the compound `CC(C)N1C(=O)[C@H](NC(=O)[C@@H](Cc2ccccc2F)NC(=O)c2ccccc2C(F)(F)F)CCc2c(F)c(F)cc(F)c21` in the same way.
no (0)

Repeat with `CC(C)N1C(=O)[C@H](NC(=O)[C@@H](Cc2ccccc2OC(F)(F)F)NC(=O)OC(C)(C)C)CCc2cc(F)ccc21`
yes (1)

Also `CC(C)N1C(=O)[C@H](NC(=O)[C@@H](Cc2ccccc2F)NC(=O)c2ccccn2)CCc2c(F)c(F)cc(F)c21` , if possible.
no (0)

Subsequent entry: `CC(C)N1C(=O)[C@H](NC(=O)[C@@H](Cc2ccccc2OC(F)(F)F)NC(=O)OC(C)(C)C)CCc2ccc(C(F)(F)F)cc21`
no (0)

One more compound: `CC(C)N1C(=O)[C@H](NC(=O)[C@@H](Cc2ccccc2F)NC(=O)c2ccc(F)cc2C(F)(F)F)CCc2cc(F)cc(F)c21`
no (0)

* * *

In this section we review reported pIC50 values for a set of compounds.
molecular target: Sodium channel protein type 9 subunit alpha (Homo sapiens); assay: Inhibition of human NaV1.7 channel expressed in HEK293 cells by FRET assay
// scale note: pIC50 = -log10(conc_M); give the bare number

# example entries with known answers
>>> meas_value("O=C(N[C@H](Cc1ccccc1F)C(=O)N[C@@H]1CCc2c(F)c(F)cc(F)c2N(C2CC2)C1=O)C1CC1C(F)(F)F (some centres undefined)")
6.93
>>> meas_value("CC1CC1C(=O)N[C@H](Cc1ccccc1F)C(=O)N[C@@H]1CCc2c(F)c(F)cc(F)c2N(C(C)C)C1=O (some centres undefined)")
6.99
>>> meas_value("CC1CC1N1C(=O)[C@H](NC(=O)[C@@H](Cc2ccccc2F)NC(=O)c2ccc(F)cc2C(F)(F)F)CCc2c(F)c(F)cc(F)c21 (some centres undefined)")
6.88
>>> meas_value("O=C(N[C@H](Cc1ccccc1F)C(=O)N[C@@H]1CCc2c(F)c(F)cc(F)c2N(C2CC2)C1=O)c1ccc(F)cc1C(F)(F)F")
7.07
>>> meas_value("CC(C)N1C(=O)[C@H](NC(=O)[C@@H](Cc2ccccc2OC(F)(F)F)NC(=O)OC(C)(C)C)CCc2c(F)c(F)cc(F)c21")
7.17

Given the entry CC(C)N1C(=O)[C@H](NC(=O)[C@@H](Cc2ccccc2F)NC(=O)C2CC2C(F)(F)F)CCc2c(F)c(F)cc(F)c21 (some centres undefined) , what pIC50 was observed with Sodium channel protein type 9 subunit alpha (Homo sapiens)?
6.86

Again, but for `CC(C)N1C(=O)[C@H](NC(=O)[C@@H](Cc2ccccc2OC(F)(F)F)NC(=O)OC(C)(C)C)CCc2cccc(F)c21`
7.15

Lookup `CC(C)N1C(=O)[C@H](NC(=O)[C@@H](Cc2ccccc2F)NC(=O)c2ccc(F)cc2C(F)(F)F)CCc2c(F)c(F)cc(F)c21`
6.99

Entry to check: `CC(C)N1C(=O)[C@H](NC(=O)[C@@H](Cc2ccccc2F)NC(=O)c2ccc(F)cc2C(F)(F)F)CCc2cc(C(F)(F)F)ccc21`
6.44

Also need `CC(C)N1C(=O)[C@H](NC(=O)[C@@H](Cc2ccccc2OC(F)(F)F)NC(=O)OC(C)(C)C)CCc2ccc(F)cc21` , thanks.
7.74

* * *

assay: Oral bioavailability in Sprague-Dawley rat at 3 mg/kg; format: ADME, organism-based; settings: in vivo
Recorded bioavailability by entry
Report the value in % with no unit label.

>>> meas_value("CC(C)N1C(=O)[C@H](NC(=O)[C@@H](Cc2ccccc2F)NC(=O)C2CC2C(F)(F)F)CCc2c(F)c(F)cc(F)c21 (some centres not stated)")
62
>>> meas_value("CC(C)N1C(=O)[C@H](NC(=O)[C@@H](Cc2ccccc2F)NC(=O)c2ccc(F)cc2C(F)(F)F)CCc2c(F)c(F)cc(F)c21")
68

Which bioavailability value is on record for `CC(C)N1C(=O)[C@H](NC(=O)[C@@H](Cc2ccccc2OC(F)(F)F)NC(=O)OC(C)(C)C)CCc2cccc(F)c21` ?
27

Can you handle `CC(C)N1C(=O)[C@H](NC(=O)[C@@H](Cc2ccccc2F)NC(=O)c2ccc(F)cc2C(F)(F)F)CCc2cc(F)cc(F)c21` next?
31

What do we get for `CC(C)N1C(=O)[C@H](NC(=O)[C@@H](Cc2ccccc2F)NC(=O)c2ccc(F)cc2C(F)(F)F)CCc2cc(Cl)cc(F)c21` ?
74

Subsequent entry: `CC(C)N1C(=O)[C@H](NC(=O)[C@@H](Cc2ccccc2OC(F)(F)F)NC(=O)OC(C)(C)C)CCc2ccc(C(F)(F)F)cc21`
21

Then what about the compound `CC(C)N1C(=O)[C@H](NC(=O)[C@@H](Cc2ccccc2OC(F)(F)F)NC(=O)OC(C)(C)C)CCc2cc(F)cc(F)c21` ?
30

* * *

test system: Rattus norvegicus; assay: Dose normalized AUC in Sprague-Dawley rat at 3 mg/kg, po; format: ADME, organism-based; design: dose 3 mg/kg, route oral; conditions: in vivo
A collection of molecules and their measured AUC/dose
Could you kindly put the unit after your number?

Endpoint output: AUC/dose of O=C(N[C@H](Cc1ccccc1F)C(=O)N[C@@H]1CCc2c(F)c(F)cc(F)c2N(C2CC2)C1=O)C1CC1C(F)(F)F (some centres not stated) . Value?
0.72 µM·h/mg/kg

Now give it for `CC(C)N1C(=O)[C@H](NC(=O)[C@@H](Cc2ccccc2OC(F)(F)F)NC(=O)OC(C)(C)C)CCc2cc(Cl)ccc21` too.
0.71 µM·h/mg/kg

Can you check `CC(C)N1C(=O)[C@H](NC(=O)[C@@H](Cc2ccccc2OC(F)(F)F)NC(=O)OC(C)(C)C)CCc2ccc(F)cc21` next?
0.2 µM·h/mg/kg

// same read-out, input: CC1CC1C(=O)N[C@H](Cc1ccccc1F)C(=O)N[C@@H]1CCc2c(F)c(F)cc(F)c2N(C(C)C)C1=O (some centres not stated)
0.44 µM·h/mg/kg

Also `CC(C)N1C(=O)[C@H](NC(=O)[C@@H](Cc2ccccc2OC(F)(F)F)NC(=O)OC(C)(C)C)CCc2cc(F)cc(F)c21` ?
0.54 µM·h/mg/kg

Lookup `CC(C)N1C(=O)[C@H](NC(=O)[C@@H](Cc2ccccc2F)NC(=O)c2ccc(F)cc2C(F)(F)F)CCc2cc(Cl)ccc21`
0.58 µM·h/mg/kg

Next up: `CC(C)N1C(=O)[C@H](NC(=O)[C@@H](Cc2ccccc2OC(F)(F)F)NC(=O)OC(C)(C)C)CCc2cc(F)ccc21`
0.66 µM·h/mg/kg

Hey, just so you know, these numbers are from ChEMBL document CHEMBL2390921.
